The origin of these recorded values is ChEMBL document CHEMBL1821704.

# Test system: RAW264.7
# Test name: Cytotoxicity against mouse RAW264.7 cells at 100 uM after 24 hrs by MTT assay
# Format: cell-based
# Condition info: raw264.7, 24 h
Readout: Activity

| Compound | Readout | Val |
| --- | --- | --- |
| COc1cc(CC[C@@H](O)C[C@@H](O)CCc2ccc(O)cc2)ccc1O (relative stereo) | Activity | Non-toxic |
| CC(=O)O[C@H](CCc1ccc(O)c(O)c1)C[C@H](O)CCc1ccc(O)c(O)c1 | Activity | Toxic |
| O=C(CCc1ccc(O)cc1)C[C@@H](O)CCc1ccccc1 | Activity | Non-toxic |
| CC(=O)O[C@H](CCc1ccc(O)cc1)C[C@@H](CCc1ccc(O)c(O)c1)OC(C)=O | Activity | Non-toxic |
| Oc1ccc(CC[C@@H](O)C[C@@H](O)CCc2ccc(O)cc2)cc1 | Activity | Non-toxic |
| CC(=O)O[C@H](CCc1ccc(O)cc1)C[C@H](O)CCc1ccc(O)cc1 | Activity | Non-toxic |
| C[C@]12CCC(=O)C=C1CC[C@@H]1[C@@H]2[C@@H](O)C[C@@]2(C)[C@H]1CC[C@]2(O)C(=O)CO [HYDROCORTISONE] | Activity | Non-toxic |
| COc1cc(CCC(=O)C[C@@H](O)CCc2ccc(O)c(O)c2)ccc1O | Activity | Toxic |
| Oc1ccc(CC[C@H](O)C[C@H](O)CCc2ccc(O)c(O)c2)cc1 (relative stereo) | Activity | Toxic |
| COc1ccc2c(c1)c(CC(=O)O)c(C)n2C(=O)c1ccc(Cl)cc1 [INDOMETHACIN] | Activity | Non-toxic |
| Oc1ccc(CC[C@@H](O)C[C@H](O)CCc2ccc(O)cc2)cc1 [(+)-HANNOKINOL] | Activity | Non-toxic |
| COc1cc(CC[C@@H](O)C[C@H](O)CCc2ccc(O)c(O)c2)ccc1O | Activity | Non-toxic |
| COc1cc(CCC(=O)C[C@@H](O)CCc2ccc(O)cc2)ccc1O | Activity | Non-toxic |
| COc1cc(CC[C@@H](O)C[C@@H](O)CCc2ccc(O)cc2)cc(O)c1O (relative stereo) | Activity | Toxic |
| CC(=O)O[C@H](CCc1ccc(O)c(O)c1)C[C@H](O)CCc1ccc(O)cc1 | Activity | Toxic |
| Oc1ccc(CC[C@@H](O)C[C@H](O)CCc2ccc(O)c(O)c2)cc1 | Activity | Non-toxic |
| CC(=O)O[C@H](CCc1ccc(O)c(O)c1)C[C@@H](CCc1ccc(O)c(O)c1)OC(C)=O | Activity | Toxic |
| CC(=O)O[C@@H](CCc1ccc(O)c(O)c1)C[C@@H](O)CCc1ccc(O)cc1 | Activity | Toxic |
| O=C(CCc1ccc(O)cc1)C[C@@H](O)CCc1ccc(O)c(O)c1 | Activity | Non-toxic |
